# TARGET_SYSTEM: GST-HttExon1Q21 (recombinant huntingtin exon 1 protein with 21 polyQ repeats fused to an N-terminal GST tag) (;human, UniProt P08515 1-218 = GST; P42858 1-88)
# Sequence (P08515 1-218, tags or fused parts left off): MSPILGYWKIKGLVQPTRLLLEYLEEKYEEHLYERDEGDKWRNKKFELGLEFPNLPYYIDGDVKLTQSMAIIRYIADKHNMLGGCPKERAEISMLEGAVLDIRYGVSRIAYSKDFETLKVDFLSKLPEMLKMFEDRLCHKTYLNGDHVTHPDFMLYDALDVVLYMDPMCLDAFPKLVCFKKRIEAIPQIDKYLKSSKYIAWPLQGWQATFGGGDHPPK
# METHOD_SUMMARY: ELISA
QUANTITY_MEASURED: log10 of EC50 (log10 of the value in nM)

BINDER	NUMBER
NI-302.4A6 (antibody, V domains shown) VH: EVQLVESGGGLVQPGGSLRLSCAASGFTFSAYAMSWVRQAPGKGLEWVSTISGSGGSTYYADSVKGRFSISRDNSKNTLYLQMNSLRAEDTAVYFCAKVTTELYGANSYYYYMDVWGKGTTVTVSS VL: EIVLTQSPGTLSLSPGERATLSCRASQSVVSRYLAWYQQKPGQAPRLLIYGASSRATGIPDRFSGSGSGTDFTLTISRLEPEDFAMYYCQLYGNSQTFGQGTKVEIK	0.48
NI-302.7D8 (antibody, V domains shown) VH: QVQLVQSGSELKKPGASVKVSCKASGYNFNNYAINWLRQAPGQGLEWMGWINTITGHPTYAQGFKGRFVFSLDTSVSTAYLQISSLKPEDTAVYYCARTYSNYGEFDYWGQGTLVTVSS VL: QSALTQPASVSGSRGQSITISCTGTSSDVGSYNLVSWYQQYPGKAPKLIIHEGSERPSGVSNRFSGSKSGNTASLTISGLQAEDEADYYCCSYAGTTTFVLFGGGTKLTVL	1.71
NI-302.15F9 (antibody, V domains shown) VH: EVQLVESGGGLVTPGGSLRLSCEASGFLFKNSSMNWVRQTPGKGLEWVSSIDTSATNYKYYADSVKGRFTISRDDATNSLYLQMNSLRADDTATYYCARGYYTPRDFDYWGQGTLVTVSS VL: DVVMTQSPQTLSVSLGQAASISCRSSQSLLYRDNNTYLNWFHQRPGQSPRRLIYRASDRDSGVPDRFSGGGSGTDFTLKISGVEAEDVGTYYCMQGTHWPRTFGQGTKVEIK	1.04
NI-302.31F11 (antibody, V domains shown) VH: EVQLVESGGGLIQPGGSLRLSCAASGFTVSSTYMSWVRQAPGKGLECVSVIFSGADTYYADSVKGRFTVSRDNSKNTLFLQMNSLRVEDTATYYCVRHYYGSDLPSDFWGQGTLVTVSS VL: DVVMTQSPLSLPVAPGEPASISCRSSQSLLYSNGYNYLDWYLQKPGKPPQLLVYLGSDRASGVPDRFSGSGSGKDFTLNISRVEAEDVGVYYCMQGLQSPWTFGQGTKLEIK	-0.05
NI-302.33C11 (antibody, V domains shown) VH: EVQLVESGGGVVQPGNSLRLSCAASGFRFSDFGMHWVRQAPGKGLEWLALIWYDGGYKYYADSVKGRFTISRDNSKNTMFLQMNSLRAEDTAVYYCATHLEYCSRTTCYLGHWGQGTLVTVSS VL: DIQLTQSPSFLSASVGDTVTFTCRASQGISDYLAWFQQKPGIAPKLLIYAASTLQTGVPSRFSGSGSGTEFTLTIRSLQSEDFGTYYCQQLKTYPYTFGQGTKVEIK	-0.96
